- Tested system: Acro S1 spike protein (SARS-CoV-2) (SARS-CoV-2, UniProt P0DTC2 16-685)
- Protocol: SPR (Carterra LSA); […]; 1:1 model; […]
Metric name: koff (s⁻¹)
Lab book: enter the figure in s⁻¹, no units written.

Binder	koff (s⁻¹)
Antibody 1-10 (Fc fusion) EVQLVESGGGLVQPGSSLRLSCAASGGTFSSIGMGWFRQAPGKEREFVAAISWDGGATAYADSVKGRFTISADNSKNTAYLQMNSLKPEDTAVYYCAKEDVGKPFDWGQGTLVTVSS	0.00053
Antibody 1-1 (Fc fusion) EVQLVESGGGLVQPGGSLRLSCAASGSIGSINAMGWFRQAPGKEREWVAGISNGGTTNYADSVKGRFTISADNSKNTAYLQMNSLKPEDTAVYYCAADGVPEYSDYASGPVWGQGTLVTVSS	0.00042
Antibody 1-2 (Fc fusion) EVQLVESGGGLVQPGGSLRLSCAASGGSEYSYSTFSSFVMGWFRQAPGKERELVASISWSGGHTFYADSVKGRFTISADNSKNTAYLQMNSLKPEDTAVYYCAAYLRGPYYSSFYDSTKYEWGQGTLVTVSS	0.00053

Next item in the queue.
I have this binder here, Antibody 1-13 (Fc fusion) EVQLVESGGGLVQPGGSLRLSCAASGRTTFSSYTMGWFRQAPGKEREFVASITRSGVLNYADSVKGRFTISADNSKNTAYLQMNSLKPEDTAVYYCAKEDVGKPFDWGQGTLVTVSS , and I need its recorded koff.
0.0031
